target: hGLP-1R (Homo sapiens, UniProt P43220); assay: cell-based or functional assay
Sequence (P43220 24-463): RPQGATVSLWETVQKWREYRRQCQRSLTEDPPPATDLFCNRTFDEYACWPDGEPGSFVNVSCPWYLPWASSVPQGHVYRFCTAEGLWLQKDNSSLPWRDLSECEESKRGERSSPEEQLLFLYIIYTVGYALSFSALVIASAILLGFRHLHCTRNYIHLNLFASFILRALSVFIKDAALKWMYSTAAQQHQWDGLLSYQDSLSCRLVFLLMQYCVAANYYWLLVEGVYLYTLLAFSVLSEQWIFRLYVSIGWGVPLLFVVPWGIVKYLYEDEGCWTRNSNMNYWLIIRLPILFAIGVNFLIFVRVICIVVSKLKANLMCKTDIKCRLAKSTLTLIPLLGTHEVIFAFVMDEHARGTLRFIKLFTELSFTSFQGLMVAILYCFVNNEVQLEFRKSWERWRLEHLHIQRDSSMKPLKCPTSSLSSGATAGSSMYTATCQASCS
Starred links: 1 amine or outer side, 2 acyl side, 3 side chain; linkers in the order of their positions; H or OH if unused. Non-standard residues stand in square brackets, D forms with d. Groups on a side chain read outwards from the residue. No end group written: not given here. *: point of attachment. C20 diacid = O=C(O)CCCCCCCCCCCCCCCCCCC(=O)*; αMePhe(2-F) = C[C@](N)(Cc1ccccc1F)C(=O)O; γGlu = O=C(O)[C@H](CCC(=O)[*:2])N[*:1]; αMeL = CC(C)C[C@](C)(N)C(=O)O; AEEA = NCCOCCOCC(=O)O; Aib = CC(C)(N)C(=O)O
Record form. Attribute: Relative cAMP EC50. Fill in for each entry.
Reply with just the number (in nM).

Exam item: Find the recorded Relative cAMP EC50 belonging to Y[Aib]QGT[αMePhe(2-F)]TSDYSKLLDKIAQKAFIEYLIEGGPSSGEPPPSEG-NH2 (not fully specified (residue 20)) [Example 330] and report it.
Marked response: 0.63

Exam item: Which Relative cAMP EC50 value belongs to Y[Aib]QGT[αMePhe(2-F)]TSDYSKILDKIAQK([AEEA-γGlu-C20 diacid])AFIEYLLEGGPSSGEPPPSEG-NH2 [Example 311] ?
Marked response: 3.36

Exam item: What measured Relative cAMP EC50 goes with YXQGTXTSDXXIXLDXKAQXEFIQXLIEGGPSSGAPPPSGS (synthetic construct; SITE 2: note = 2-Aminoisobutyric Acid; SITE 6: note = alpha-methyl-2-fluoro-L-phenylalanine; SITE 10: note = 3-(4-Pyridyl)-L-alanine; SITE 11: note = alpha-methyl-L-serine; SITE 13: note = alpha-methyl-leucine; SITE 16: note = L-ornithine; SITE 17: note = Lysine is chemically mo) [Example 1202] ?
Marked response: 0.237

Exam item: Consider the binder Y[Aib]QGTFTSDYSI[αMeL]LDKQAAK([AEEA-AEEA-γGlu-C20 diacid])QFVEWLIA[Aib]GPSSGEPPPGEG-NH2 [Example 333] and give its measured Relative cAMP EC50.
Marked response: 0.705

Exam item: I'd like to know its Relative cAMP EC50. The binder in question is YXQGTFTSDFSXXLDKKAQXAFIEYLLEAGPSSGAPPPSEG (not fully specified; synthetic construct; SITE 2: note = 2-Aminoisobutyric Acid; SITE 12: note = L-ornithine; SITE 13: note = alpha-methyl-leucine; SITE 17: note = Lysine is chemically modified through conjugation of the epsilon-amino group of the Lysine side chain with (2-[2-(2-Amino-ethoxy)-ethoxy]-acetyl)2-(gamma-Glu)) [Example 72]
Marked response: 1.86

Exam item: What value of Relative cAMP EC50 has been reported for the following binder? YXQGTFTSDFSXXLDKKAQXAFIEYLLAGGPSSGEPPPSEG (Aib, Orn, alpha-methyl-Leu, acylated Lys, C-terminal amide; synthetic construct; SITE 2: note = 2-Aminoisobutyric Acid; SITE 12: note = L-ornithine; SITE 13: note = alpha-methyl-leucine; SITE 17: note = Lysine is chemically modified through conjugation of the epsilon-amino group of the Lysine side chain with (2-[2-(2-Amino-ethoxy)-ethoxy]-acetyl)-(gamma-Glu)) [Example 29]
Marked response: 3.56

Exam item: Sample YXQGTFTSDXSQXLDKKAQXAFIEYLIAGGPSSGAPPPSGE (synthetic construct; SITE 2: note = 2-Aminoisobutyric Acid; SITE 10: note = 3-(4-Pyridyl)-L-alanine; SITE 13: note = alpha-methyl-leucine; SITE 17: note = Lysine is chemically modified through conjugation of the epsilon-amino group of the Lysine side chain with (gamma-Glu)2-CO-(CH2)16-CO2H; SITE 20:) [Example 883] — what was its Relative cAMP EC50?
Marked response: 1.05

Exam item: # query: Relative cAMP EC50 of entry YXQGTFTSDFSKXLDKKAQXAFIEYLLAGGPSSGEPPPSGEX (not fully specified; Aib, αMeL; acylated Lys; C-terminal AEEA amide; synthetic construct; SITE 2: note = 2-Aminoisobutyric Acid; SITE 13: note = alpha-methyl-leucine; SITE 17: note = Lysine is chemically modified through conjugation of the epsilon-amino group of the Lysine side chain with (2-[2-(2-Amino-ethoxy)-ethoxy]-acetyl)-(gamma-Glu)-CO-(CH2) 18-CO2H; SITE 20: n) [Example 33]
Marked response: 1.71

Exam item: Return reported Relative cAMP EC50; argument: YXQGTFTSDXXQXLDXKAQXQFIEXLIAXGPSSGEPPPSGGGE (non-natural residues; lysine acylated with C18 diacid; C-terminal amide; synthetic construct; SITE 2: note = 2-Aminoisobutyric Acid; SITE 10: note = 3-(4-Pyridyl)-L-alanine; SITE 11: note = alpha-methyl-L-serine; SITE 13: note = alpha-methyl-leucine; SITE 16: note = L-ornithine; SITE 17: note = Lysine is chemically modified through conjugation of the epsilon-amino group) [Example 1182]
Marked response: 0.797

Exam item: Param item = YXQGTFTSDXSQXLDXKAQXAFIEYLLAGGPSSGAPPPSGSEE (non-natural residues, lipidated Lys, C-terminal amide; synthetic construct; SITE 2: note = 2-Aminoisobutyric Acid; SITE 10: note = 3-(4-Pyridyl)-L-alanine; SITE 13: note = alpha-methyl-leucine; SITE 16: note = L-ornithine; SITE 17: note = Lysine is chemically modified through conjugation of the epsilon-amino group of the Lysine side chain with (Glu)-(ga)) [Example 1057] ; retrieve measured Relative cAMP EC50.
Marked response: 5.16

Exam item: Given the binder YXQGTXTSDXXIXLDXKAQXXFIEXLQEGGPSSGEPPPSGTE (synthetic construct; SITE 2: note = 2-Aminoisobutyric Acid; SITE 6: note = alpha-methyl-2-fluoro-L-phenylalanine; SITE 10: note = 3-(4-Pyridyl)-L-alanine; SITE 11: note = alpha-methyl-L-serine; SITE 13: note = alpha-methyl-leucine; SITE 16: note = L-ornithine; SITE 17: note = Lysine is chemically mo) [Example 504] , what is its reported Relative cAMP EC50?
Marked response: 0.253
